Source: PubChem BioAssay (NCATS)

Test: Primary fluorescence-based thiol-reactive (MSTI) qHTS assay for identification of artifact compounds. (AID 1845221); also: nearly all actives have a fitted effect of over 65% in size
Details: MSTI thiol-reactivity probe, 1 h; series mostly up to 53.8 µM
Results filed as inconclusive are left out. Calls of active or inactive are those of the source. Calls follow the shape of the dose curve; as a rule, active = well fitted inhibition curve with a large enough effect; inconclusive = small, poorly fitted or top-dose-only effect; inactive = no such curve, though single readings can be large or run the other way.
Outcome (select one): Yes (active), No (inactive)

Example results:
COc1cc(CCc2ccccc2)c(C(=O)O)c2c1CC(C(C)(C)O)O2 (stereo not drawn): No
CCNC(=O)[C@H]1O[C@H](n2cnc3c(NCC(c4ccccc4)c4ccccc4)nc(C(=O)NCCNC(=O)NC4CCN(c5ccccn5)CC4)nc32)[C@H](O)[C@@H]1O: No
CC(=O)OC[C@]12[C@H](OC(C)=O)C(=O)[C@@H]3[C@@H](OC(C)=O)[C@@]14O[C@@]3(C)COC(=O)c1cccnc1[C@@H](C)[C@H](C)C(=O)O[C@@H]([C@H](OC(C)=O)[C@@H]2OC(C)=O)[C@]4(C)O: No
CCOc1c2c(c(OCC)c3ccccc13)C(=O)N(c1ccc(CC(=O)NS(=O)(=O)c3ccccc3)cc1)C2: No
C=C[C@](C)(CC/C=C(\C)C(=O)O)O[C@@H]1OC[C@H](O)[C@H](O)[C@H]1O: Yes
CC1(C)CC[C@]2(C(=O)O)CC[C@]3(C)C(=CCC4[C@@]5(C)C[C@@H](O)[C@H](O)C(C)(C)C5CC[C@]43C)[C@@H]2[C@@H]1O (stereo partly drawn): No
CC/C=C\C[C@H]1C(=O)C=C[C@@H]1CCCCCCCC(=O)O: No

Let us examine a further case.
Ask: Recorded test outcome, item COC(=O)C1C(CC(C)=O)C=CC(O)C12Oc1cc(C)cc(O)c1C2=O (stereo not drawn)
Result: Yes

====

Tested on: HaCat
Assay: Cytotoxic Profiling of Annotated Libraries Using Quantitative High-Throughput Screening (AID 1296008); also: nearly all actives have a fitted effect of over 60% in size
Conditions: Five cell lines viability, CellTiter-Glo ATP luminescence, 48-72 h
Records with an inconclusive call do not appear. Activity calls are given as the source filed them. The call rests on the fitted dose curve; in most records, active means well fitted inhibition curve with a large enough effect; inconclusive means small, poorly fitted or top-dose-only effect; inactive means flat fitted curve, though single readings scatter.
Outcome (select one): true = active, false = inactive

Example results:
C=C[C@H]1[C@H](O[C@@H]2O[C@H](CO)[C@@H](O)[C@H](O)[C@H]2O)OC=C2C(=O)OCC[C@]21O: false
CC(C)(O)CNc1nc(Nc2ccnc(C(F)(F)F)c2)nc(-c2cccc(C(F)(F)F)n2)n1: false
CC(=O)N1CCN(NC(=O)c2ccc(F)cc2)CC1: false
COC(=O)C1=CO[C@@H](O[C@@H]2O[C@H](COC(=O)/C=C/c3cc(OC)c(O)c(OC)c3)[C@@H](O)[C@H](O)[C@H]2O)[C@@H]2C(CO)=CC[C@H]12: false

Ask: Recorded test outcome, item O=C(O)[C@H]1CCCC[C@H]1C(=O)N1CCc2ccccc2[C@H]1CN1C(=O)c2ccccc2C1=O
Result: false

Ask: Let us now turn to OC[C@H]1O[C@@H](OC(CCCCc2ccc(O)cc2)CCc2ccc(O)cc2)[C@H](O[C@@H]2OC[C@](O)(CO)[C@H]2O)[C@@H](O)[C@@H]1O (some centres undefined)
Result: false

Ask: Let us now turn to O=C(c1ccccn1)c1cnn2c(-c3ccncc3)ccnc12
Result: false

Ask: Let us now turn to Cc1ccc(C(=O)Nc2ccc(Oc3cc4cnn(C)c4cc3-c3cn[nH]c3)c(F)c2)c(=O)n1-c1ccc(F)cc1
Result: true

Ask: Let us now turn to CC1=CC[C@]2(C(=O)O[C@@H]3O[C@H](CO[C@@H]4O[C@H](CO)[C@@H](O[C@@H]5O[C@@H](C)[C@H](O)[C@@H](O)[C@H]5O)[C@H](O)[C@H]4O)[C@@H](O)[C@H](O)[C@H]3O)CC[C@]3(C)C(CCC4[C@@]5(C)C[C@@H](O)[C@H](O)[C@@](C)(CO)C5CC[C@]43C)C2C1C (some centres undefined)
Result: false

Ask: Let us now turn to COc1cc(C(O)C(CO)Oc2ccc(CCCO[C@@H]3O[C@@H](C)[C@H](O)[C@@H](O)[C@H]3O)cc2OC)ccc1O (some centres undefined)
Result: false

Ask: Let us now turn to CC1(C)CC2C3=CCC4C5(C)CCC(OC6OC(C(=O)O)C(O)C(O)C6OC6OC(CO)C(O)C(O)C6OC6OC(CO)C(O)C(O)C6O)C(C)(CO)C5CCC4(C)C3(C)CCC2(C)C(OC2OCC(O)C(OC3OC(CO)C(O)C(O)C3O)C2O)C1O (centres undefined)
Result: false

Ask: Let us now turn to CC1(C)CC[C@]2(C(=O)O[C@@H]3O[C@H](CO)[C@@H](O)[C@H](O)[C@H]3O)CC[C@]3(C)C(=CCC4[C@@]5(C)C[C@@H](O)[C@H](O)C(CO)(CO)C5CC[C@]43C)C2[C@@H]1O (some centres undefined)
Result: false

Ask: Let us now turn to COc1cc(O[C@@H]2O[C@H](CO)[C@@H](O)[C@H](O)[C@H]2O)c(CCC(=O)OC[C@H]2O[C@@H](Oc3cc(OC)c(C4OC(=O)C(C)(O)C4O)cc3CCC(=O)O)[C@H](O)[C@@H](O)[C@@H]2O)cc1C1OC(=O)C(C)(O)C1O (some centres undefined)
Result: false

Ask: Let us now turn to C=CCc1ccc(O[C@@H]2O[C@H](CO)[C@@H](O)[C@H](O)[C@H]2O)c(OC)c1
Result: false
